Overview of recorded relative binding affinity (ratio to native VEGF (8-109)) for various binders
# SYSTEM NAME: T1, Flt-IgG (a chimeric Flt-human Fc molecule) (human, UniProt P17948 27-758, limits assumed)
# T1 construct: not shown: human IgG Fc
# T1 sequence (P17948 27-758 limits assumed, change not shown): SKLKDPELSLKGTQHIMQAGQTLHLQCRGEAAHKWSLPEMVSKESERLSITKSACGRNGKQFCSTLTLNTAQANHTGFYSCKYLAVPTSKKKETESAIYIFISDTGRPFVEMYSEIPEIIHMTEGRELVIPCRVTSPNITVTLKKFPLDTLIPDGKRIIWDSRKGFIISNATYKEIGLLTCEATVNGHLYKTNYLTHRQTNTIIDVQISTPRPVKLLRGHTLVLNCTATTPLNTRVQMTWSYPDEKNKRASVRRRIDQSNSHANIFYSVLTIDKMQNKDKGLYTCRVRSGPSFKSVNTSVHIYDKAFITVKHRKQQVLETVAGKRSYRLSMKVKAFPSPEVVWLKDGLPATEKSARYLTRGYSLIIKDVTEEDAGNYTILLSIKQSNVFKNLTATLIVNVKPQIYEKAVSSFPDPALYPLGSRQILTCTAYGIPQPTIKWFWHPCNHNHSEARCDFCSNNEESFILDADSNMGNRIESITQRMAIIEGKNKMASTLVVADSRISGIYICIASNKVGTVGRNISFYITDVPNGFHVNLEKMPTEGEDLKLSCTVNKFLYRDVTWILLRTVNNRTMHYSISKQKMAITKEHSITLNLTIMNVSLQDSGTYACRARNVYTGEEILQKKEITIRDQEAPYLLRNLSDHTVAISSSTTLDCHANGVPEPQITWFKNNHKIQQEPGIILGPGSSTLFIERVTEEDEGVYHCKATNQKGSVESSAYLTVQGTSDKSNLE
# MEASUREMENT NOTES: competition ELISA: displacement of biotinylated native VEGF from Flt-IgG
MEASUREMENT LABEL: relative binding affinity (ratio to native VEGF (8-109)) (fold)

# BINDER, UOM, NUMERIC RESULT
measured = [
    ("LK-VRB-1s* (ligand) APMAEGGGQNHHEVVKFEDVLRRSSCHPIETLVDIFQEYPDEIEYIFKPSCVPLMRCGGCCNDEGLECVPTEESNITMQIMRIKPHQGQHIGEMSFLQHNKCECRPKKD", "fold", 6000),
    ("LK-VRB-3s (ligand) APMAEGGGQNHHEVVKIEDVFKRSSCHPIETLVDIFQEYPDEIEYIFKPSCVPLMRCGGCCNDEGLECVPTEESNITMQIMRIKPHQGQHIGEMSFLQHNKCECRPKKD", "fold", 400),
    ("LK-VRB-9s (ligand) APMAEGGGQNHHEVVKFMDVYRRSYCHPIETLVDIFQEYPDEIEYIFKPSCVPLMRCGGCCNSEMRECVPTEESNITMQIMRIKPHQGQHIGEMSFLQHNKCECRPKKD", "fold", 300),
    ("LK-VRB-4s (ligand, the codon printed for Y25I is CAC (His)) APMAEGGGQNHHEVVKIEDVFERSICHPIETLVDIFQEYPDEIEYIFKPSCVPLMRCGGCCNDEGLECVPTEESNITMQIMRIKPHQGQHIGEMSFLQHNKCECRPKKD", "fold", 200),
]
